Tgt: LXRβ (Homo sapiens)
Method summary: LXR Gal4 reporter transient transfection assay (mammalian two-hybrid, HEK293), LXRβ
Assay type: cell-based
Set-up: LXRβ (amino acids 156-461); expressed in transfected cells; host or cells: HEK293
Test context: full length (FL) LXRβ, HEK293; read-out: FL-M2H Gal4β
Sequence (P55055 whole entry, the tested form may be a part): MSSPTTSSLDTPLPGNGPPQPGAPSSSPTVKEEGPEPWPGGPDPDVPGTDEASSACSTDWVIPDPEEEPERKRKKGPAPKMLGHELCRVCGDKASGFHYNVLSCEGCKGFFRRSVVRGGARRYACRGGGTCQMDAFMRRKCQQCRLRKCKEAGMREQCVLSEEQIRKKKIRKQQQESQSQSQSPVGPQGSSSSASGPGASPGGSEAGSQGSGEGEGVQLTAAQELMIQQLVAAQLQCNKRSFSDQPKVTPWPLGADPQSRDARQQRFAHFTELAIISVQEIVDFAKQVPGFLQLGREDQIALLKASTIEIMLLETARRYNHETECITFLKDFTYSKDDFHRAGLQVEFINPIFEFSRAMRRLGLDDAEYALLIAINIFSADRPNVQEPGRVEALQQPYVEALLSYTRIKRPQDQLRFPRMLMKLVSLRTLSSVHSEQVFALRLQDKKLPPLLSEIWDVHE
Measured parameter: EC50

Consider the following illustrative entries.
// recorded EC50 for `N#Cc1scnc1-c1c(-c2cccc(-c3cc(F)c(C(=O)O)cc3Cl)c2)n(S(=O)(=O)c2ccc(C(F)F)cc2)c2ccc(F)cc12` : < 100 nM

// recorded EC50 for `N#Cc1sccc1-c1c(-c2cccc(N3CC(C(=O)O)C3)c2)n(S(=O)(=O)c2ccc(C(F)F)cc2)c2ccc(F)cc12` : < 100 nM

// recorded EC50 for `N#Cc1ccccc1-c1c(-c2cccc(-c3ccc(C(=O)O)cc3F)c2)n(S(=O)(=O)c2ccc(C(F)F)cc2)c2ccc(F)cc12` : < 100 nM

// recorded EC50 for `Cc1ccc(S(=O)(=O)n2c(-c3cccc(-c4ccc(C(=O)O)c(C)c4Cl)c3)c(-c3ccsc3C#N)c3cc(F)ccc32)cc1` : < 100 nM

// recorded EC50 for `Cc1ccc(S(=O)(=O)n2c(-c3cccc(-c4cnc(C(=O)O)cc4C)c3)c(-c3ccsc3C#N)c3cc(F)ccc32)cc1` : 100 to 1000 nM

// recorded EC50 for `N#Cc1cccc(C#N)c1-c1c(-c2cccc(-c3ccc(C(=O)O)cc3Cl)c2)n(S(=O)(=O)c2ccc(C(F)F)cc2)c2ccccc12` : < 100 nM

More entries:
// recorded EC50 for `Cc1ccc(S(=O)(=O)n2c(-c3cccc(N4CC(C(=O)O)C4)c3)c(-c3ccsc3C(F)F)c3cc(F)ccc32)cc1` : < 100 nM

// recorded EC50 for `N#Cc1sccc1-c1c(-c2cccc(N3CC(C(=O)O)C3)c2)n(S(=O)(=O)c2ccc3ccccc3c2)c2ccc(F)cc12` : < 100 nM

====

Method summary: Phase 1 study, SAD cohorts: plasma pharmacokinetics
Assay type: in vivo, human
Test context: both sexes, human, oral, Day 1, 12 mg, plasma, median
Measured parameter: Tmax (h)
Please give a number only; it is taken to be in h.

// recorded Tmax for `N#Cc1cccc(C#N)c1-c1c(-c2cccc(-c3ccc(C(=O)NCC(=O)O)cc3Cl)c2)n(S(=O)(=O)c2ccc(C(F)F)cc2)c2ccc(F)cc12` : 3

====

Tgt: GST-LXRβ ligand-binding domain (Homo sapiens, UniProt P55055)
Construct: amino acids 156-461; NP009052
Sequence (P55055 156-460 limits assumed): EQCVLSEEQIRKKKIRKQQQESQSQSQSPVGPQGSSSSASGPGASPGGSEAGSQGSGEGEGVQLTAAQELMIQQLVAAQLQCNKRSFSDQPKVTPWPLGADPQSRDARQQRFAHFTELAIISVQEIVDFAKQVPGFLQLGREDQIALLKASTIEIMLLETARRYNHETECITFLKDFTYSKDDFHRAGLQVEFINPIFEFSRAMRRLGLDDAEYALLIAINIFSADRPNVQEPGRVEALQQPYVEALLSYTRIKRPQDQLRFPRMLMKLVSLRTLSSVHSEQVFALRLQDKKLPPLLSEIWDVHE
Method summary: TR-FRETβ activity assay (NCoA3 coactivator peptide recruitment)
Test context: 1 μM 24(S)-25-epoxycholesterol prestimulation
Measured parameter: EC50

Consider the following illustrative entries.
// recorded EC50 for Cc1cc(S(=O)(=O)n2c(-c3cccc(-c4ccc(C(=O)O)cc4Cl)c3)c(-c3ccsc3C#N)c3cc(F)ccc32)ccc1F [3/23] : 0.1 to 1 µM

// recorded EC50 for Cc1cccc(C#N)c1-c1c(-c2cccc(-c3ccc(C(=O)O)cc3Cl)c2)n(S(=O)(=O)c2ccc(C(F)F)cc2)c2ccc(F)cc12 [41/2] : < 0.1 µM

// recorded EC50 for N#Cc1sccc1-c1c(-c2cccc(N3CCC(C(=O)O)CC3)c2)n(S(=O)(=O)c2ccc(C(F)F)cc2)c2ccc(F)cc12 [3/60] : 0.1 to 1 µM

// recorded EC50 for Cc1cccc(C(F)F)c1-c1c(-c2cccc(-c3ccc(C(=O)O)cc3Cl)c2)n(S(=O)(=O)c2ccc(C(F)F)cc2)c2ccc(F)cc12 [11/38] : < 0.1 µM

// recorded EC50 for O=C(O)c1ccc(-c2cccc(-c3c(-c4cn[nH]c4C(F)(F)F)c4cc(F)ccc4n3S(=O)(=O)c3ccc(C(F)F)cc3)c2)c(Cl)c1 [11/25] : 0.1 to 1 µM

// recorded EC50 for Cc1ccc(S(=O)(=O)n2c(-c3cccc(N4[C@@H]5CC[C@H]4C[C@@H](C(=O)O)C5)c3)c(-c3ccsc3C#N)c3cc(F)ccc32)cc1 [3/58] : 1 to 10 µM

More entries:
// recorded EC50 for Cc1ccc(S(=O)(=O)n2c(-c3cccc(C45CC(C(=O)O)(C4)C5)c3)c(-c3ccsc3C#N)c3ccccc32)cc1 [5/2] : 0.1 to 1 µM

// recorded EC50 for N#Cc1sccc1-c1c(-c2cccs2)n(S(=O)(=O)c2ccc(Cl)cc2)c2ccc(OCCCCC(=O)O)cc12 [15/2] : > 10 µM

// recorded EC50 for O=C(O)c1ccc(-c2cccc(-c3c(-c4ccccc4)c4cc(F)ccc4n3S(=O)(=O)c3ccc(C(F)F)cc3)c2)c(Cl)c1 [C11/39] : 0.1 to 1 µM

// recorded EC50 for Cc1ccc(S(=O)(=O)n2c(-c3cccc(C4CC5(CC(C(=O)O)C5)C4)c3)c(-c3ccsc3C#N)c3cc(F)ccc32)cc1 (centres unmarked) [3/65] : 0.1 to 1 µM

// recorded EC50 for Cc1ccc(S(=O)(=O)n2c(-c3ccsc3)c(-c3ccsc3C#N)c3ccccc32)cc1 [1/23] : 0.1 to 1 µM

// recorded EC50 for Cc1ccc(S(=O)(=O)n2c(-c3cccc(-c4ccc(CN)cc4Cl)c3)c(-c3ccsc3C#N)c3cc(F)ccc32)cc1 [2/1] : 0.1 to 1 µM

// recorded EC50 for Cc1ccc(S(=O)(=O)n2c(-c3ccnc(-c4ccc(C(=O)O)cc4)c3)c(-c3ccsc3C#N)c3cc(F)ccc32)cc1 [5/6] : 0.1 to 1 µM

// recorded EC50 for CS(=O)(=O)NC(=O)C1CC1c1cccc(-c2c(-c3ccsc3C#N)c3ccccc3n2S(=O)(=O)c2ccc(Cl)cc2)c1 (centres unmarked) [32/1] : 0.1 to 1 µM

====

Method summary: Short term HFD mouse model: plasma and liver exposure
Type: in vivo
Test context: HFD mice, three oral doses of 10 mg/kg over two days, 4 h after final dose
Procedure: The in vivo transcriptional regulation of several LXR target genes by LXR modulators was assessed in mice. For this, C57BL/6J were purchased from Elevage Janvier (Rennes, France) at the age of 8 weeks. After an acclimation period of two weeks, animals were prefed on a high fat diet (HFD) (Ssniff Spezialdiäten GmbH, Germany, Surwit EF D12330 mod, Cat. No. E15771-34), with 60 kcal % from fat plus 1% (w/w) extra cholesterol (Sigma-Aldrich, St. Louis, MO) for 5 days. […]
Measured parameter: liver/plasma ratio 4 h

// recorded liver/plasma ratio 4 h for `CC(=O)NS(=O)(=O)c1ccc(-c2cccc(-c3c(-c4c(C#N)cccc4C#N)c4cc(F)ccc4n3S(=O)(=O)c3ccc(C(F)F)cc3)c2)c(Cl)c1` : B (5 to ≤30)

// recorded liver/plasma ratio 4 h for `N#Cc1cccc(C#N)c1-c1c(-c2cccc(-c3ccc(C(=O)O)cc3Cl)c2)n(S(=O)(=O)C2CCC(F)(F)CC2)c2ccc(F)cc12` : B (5 to ≤30)

====

Some compounds, each annotated with its measured pEC50.
Tgt: LXRβ (Homo sapiens)
Method summary: Biochemical binding assay LXRβ
Test context: mean ± SD
Schema: pEC50 number; meaning minus log10 of the concentration expressed in molar units.

// recorded pEC50 for N#Cc1cccc(C#N)c1-c1c(-c2cccc(-c3ccc(C(=O)O)cc3Cl)c2)n(S(=O)(=O)c2ccc(C(F)F)cc2)c2ccc(F)cc12 [pre-6/3] : 7.77

Shifting focus to the compound that follows.
// recorded pEC50 for N#Cc1cccc(C#N)c1-c1c(-c2cccc(-c3ccc(C(=O)NCC(=O)O)cc3Cl)c2)n(S(=O)(=O)c2ccc(C(F)F)cc2)c2ccc(F)cc12 [Compound 21/3] : 7.82

====

Some molecules, each annotated with its measured pEC50.
Tgt: LXRβ (Homo sapiens, UniProt P55055)
Construct: LXRβ (amino acids 156-461); expressed in transfected cells; host or cells: HEK293
Sequence (P55055 156-460): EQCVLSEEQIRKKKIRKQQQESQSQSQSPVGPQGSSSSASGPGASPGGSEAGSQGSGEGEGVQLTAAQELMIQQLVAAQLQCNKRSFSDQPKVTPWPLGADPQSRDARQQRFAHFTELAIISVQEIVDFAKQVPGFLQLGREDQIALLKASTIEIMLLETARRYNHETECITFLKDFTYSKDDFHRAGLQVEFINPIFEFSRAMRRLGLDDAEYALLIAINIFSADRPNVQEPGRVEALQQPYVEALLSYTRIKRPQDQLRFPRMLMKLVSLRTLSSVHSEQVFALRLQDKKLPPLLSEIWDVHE
Method summary: LXR Gal4 reporter transient transfection assay (mammalian two-hybrid, HEK293), LXRβ
Format: cell-based
Test context: ligand-binding domain (LBD) of LXRβ, HEK293; read-out: LBD-M2H Gal4β
pEC50: −log10 of the molar value.

Consider the following illustrative entries.
Lab entry: LXRβ (Homo sapiens, UniProt P55055) assay, molecule Cc1ccc(S(=O)(=O)n2c(-c3cccc(C4CC4C(=O)O)c3)c(-c3ccsc3F)c3ccccc32)cc1 (stereo not shown) [30/14] , pEC50 = 6.00 to 7.00

Lab entry: LXRβ (Homo sapiens, UniProt P55055) assay, molecule COc1ccc(S(=O)(=O)n2c(-c3ccccc3)c(-c3ccsc3OC)c3ccccc32)cc1 [20/22] , pEC50 = 6.00 to 7.00

Lab entry: LXRβ (Homo sapiens, UniProt P55055) assay, molecule N#Cc1ccc(OCC(=O)O)cc1-c1c(-c2cccs2)n(S(=O)(=O)c2ccc(Cl)cc2)c2ccccc12 [21/1] , pEC50 = 5.00 to 6.00

Lab entry: LXRβ (Homo sapiens, UniProt P55055) assay, molecule Cc1ccc(S(=O)(=O)n2c(-c3cccc(N4CC(C(=O)O)C4)c3)c(-c3ccsc3C#N)c3cc(F)c(F)cc32)cc1 [3/42] , pEC50 = > 7.00

Lab entry: LXRβ (Homo sapiens, UniProt P55055) assay, molecule Cc1ccc(S(=O)(=O)n2c(-c3ccc(/C=C/C(=O)O)s3)c(-c3ccsc3C#N)c3ccccc32)cc1 [3/19] , pEC50 = 6.00 to 7.00

More entries:
Lab entry: LXRβ (Homo sapiens, UniProt P55055) assay, molecule Cc1ccc(S(=O)(=O)n2c(-c3cccc(C(C)(C)C(=O)O)c3)c(-c3ccsc3C#N)c3ccccc32)cc1 [3/20] , pEC50 = > 7.00

Lab entry: LXRβ (Homo sapiens, UniProt P55055) assay, molecule O=S(=O)(c1ccc(Cl)cc1)n1c(-c2cccs2)c(-c2ccsc2Cl)c2ccccc21 [Compound 20] , pEC50 = > 7.00

From: patent US20260083704A1
